Reported z-score values follow for various compounds
- TARGET OR SYSTEM: NADPH oxidase 2 (Homo sapiens)
- TEST SUMMARY: compounds shifting NOX2 Amplex Red fluorescence – cell-based, HEK293-NOX2, PMA-stimulated, NOX inhibitor project, primary screen (AID 1159); also: test concentration not given here
- COND: 45 min, higher = more signal, called active from +8 up or from −8 down
Could you keep your reply to the number by itself?

COMPOUND | TARGET OR SYSTEM | TEST RESULT
Cc1ccc(S[C@]2(C(=O)NC(C)C)CC(=O)N(C3CCCCC3)[C@@H]2c2ccc(CO)cc2I)cc1 | NADPH oxidase 2 (Homo sapiens) | 0.877

From here, focus on the item given below.
Value (z-score, NADPH oxidase 2 (Homo sapiens)) for record COc1cc(C(O)C2C=CC3C(=O)N(c4ccccc4)C(=O)C3N2Nc2ccccc2F)cc(OC)c1OC (stereo not given) = -1.67

###

// reported composite z-score for each item listed
- TEST SUMMARY: probe aDKK1 binding to arrayed compounds – biochemical, biotinylated probe, 635/667 nm fluorescence, primary screen (AID 1099);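 also: score merges 667nm spot fluorescence with signal to noise across triplicate slides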
- COND: small-molecule microarray, higher = more signal
Write the number on its own, no unit after it.

MOLECULE | TEST RESULT
O=C1N(Cc2ccccc2)c2ccccc2C[C@@]12COC(c1ccc(OCCCO)cc1)=N2 | 1.79

The molecule identified as Cc1ccc(F)cc1S(=O)(=O)N[C@H]1CCN(Cc2ccc(OC(C)C)cc2)C1 registered its composite z-score at -0.322

Field composite z-score (entry CC(C)C(CO)N1C(=O)[C@@H]2C3C(=O)OCCC/C=C\[C@H]3OC23C=CCN(Cc2ccccc2)C(=O)[C@@H]13 (stereo partly drawn) ) reads -0.0827

Memo: CCOC(=O)C1=CCC(c2cc3ccccc3[nH]2)N(CCN2CC(C(=O)OCC)=CCC2c2cc3ccccc3[nH]2)C1 (stereo not drawn) , reported composite z-score: 0.237

The reported value for COc1cc(OC)c(C(O)C2C=CC3C(=O)N(c4ccccc4)C(=O)C3N2Nc2ccc(C(C)C)cc2)cc1Br (stereo not drawn) in terms of composite z-score is 0.671

Entry under test: CC(C)N1C(=O)C[C@@](C(=O)NCCN2CCOCC2)(c2ccc([N+](=O)[O-])cc2)[C@H]1c1ccc(CO)cc1 . Its composite z-score was -0.477

For record COc1ccc(C(O)C2C=CC3C(=O)N(c4ccccc4)C(=O)C3N2Nc2ccc(C#N)cc2)cc1OCc1ccccc1 (stereo not drawn) the listed composite z-score is 1.31

# composite z-score of COc1ccc([Si](C)(C)[C@@H]2[C@@H](CC(=O)N3CCC[C@H]3CO)O[C@]3(C(=O)N(Cc4cccc(N5CCCCC5=O)c4)c4ccccc43)[C@H]2C)cc1 = -0.246

###

- TARGET OR SYSTEM: Alpha-bungarotoxin (Bungarus multicinctus) (UniProt P60615)
- Sequence (P60615 whole entry, looked up): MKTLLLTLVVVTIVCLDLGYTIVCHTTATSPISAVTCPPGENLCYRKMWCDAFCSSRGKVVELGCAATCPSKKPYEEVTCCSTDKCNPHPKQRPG
- TEST SUMMARY: compounds binding labelled alpha-BTX control protein – biochemical, small-molecule microarray, Alexa647 label, 635/667 nm fluorescence, artefact control for SMM control protein annotation, profiling panel (AID 1117)
- COND: alpha-BTX-A647 binding fluorescence, higher = more signal
READOUT NAME: composite z-score
Simply state the number, no unit and no words.

SUBSTANCE SMILES | composite z-score
COCCOC(=O)N1C(=O)[C@@]2(c3cc(C#CCC(C(=O)OC)C(=O)OC)ccc31)[C@H](C(=O)Nc1nc3ccccc3s1)[C@H]1C(=O)O[C@H](c3ccccc3)[C@H](c3ccccc3)N1[C@@H]2c1ccc(OCCO)cc1 | 0.752

Please turn your attention to the following entry.
Given item C=CCOC(=O)[C@H]1[C@@H]2C(=O)O[C@@H](c3ccccc3)[C@@H](c3ccccc3)N2[C@@H](c2ccc(OCCOC(=O)[C@@H]3C[C@@H]4C(=O)N[C@@H](CCCC[N+](C)(C)C)C(=O)N4[C@@H]3c3ccc(O)cc3)cc2)[C@]12C(=O)Nc1ccc(I)cc12 , the value recorded as its composite z-score is 0.74

###

- TEST SUMMARY: resazurin metabolic signal in A549 cells – cell-based, resazurin fluorescence, 24 h, PK04 Diversity Set, profiling panel (AID 1171); also: test concentration not given here
- COND: A549 viability, higher = more signal, called active from +8 up or from −8 down
READOUT NAME: z-score
// response body must contain only the number

MOLECULE | z-score
Cc1ccc(F)cc1S(=O)(=O)N[C@H]1CCN(Cc2ccc(OC(C)C)cc2)C1 | -0.477

The molecule identified as C#CCN1[C@@H](Cc2ccccc2)C(=O)O[C@H](Cc2ccccc2)[C@@H]1/C=C/C1CC1 registered its z-score at 3.08

// NC(=O)NCC#Cc1ccc2c(c1)[C@]1(C(=O)N2)[C@H](c2ccc(OCCO)cc2)N2[C@H](c3ccccc3)[C@H](c3ccccc3)OC(=O)[C@H]2[C@@H]1C(=O)NC[C@H](O)c1ccccc1 : z-score value = 0.401

What the record says about O=C(NCC(O)CO)C1N=C(c2ccc(OCCCO)cc2)N(c2ccccc2)O1 (stereo not drawn) : z-score is -0.0914

Value of z-score reported for the molecule CCCc1cc2c(n1CCc1ccc(Cl)cc1)C(C)C1CN(C(=O)c3ccccc3)C(C)(C(=O)OC)C21 (stereo not drawn) is -1.94

Notebook: COCCOC(=O)N1C(=O)[C@@]2(c3cc(C#CC4(O)CCCCCC4)ccc31)[C@H](c1ccc(O)cc1)N1[C@H](c3ccccc3)[C@H](c3ccccc3)OC(=O)[C@H]1[C@@H]2C(=O)N1CCCCCCC1 , z-score read as -0.178

According to the records, this molecule O=C1C[C@]2(c3ccc([N+](=O)[O-])cc3)C(=O)N(C3CC3)c3cc(CO)ccc3[C@H]2N1C1CCCCC1 displays z-score of -0.332

Entry C=CC1c2cc(O)c(OC)cc2CCN1C (stereo not drawn) — recorded z-score = -0.535

###

- TARGET OR SYSTEM: NADPH oxidase 5 (Homo sapiens)
- TEST SUMMARY: compounds shifting NOX5 Amplex Red fluorescence – cell-based, HEK293-NOX5, NOX inhibitor project, primary screen (AID 1161)
- COND: HEK293-NOX5, ionomycin, 45 min, higher = more signal
The entries below come with measured z-score values attached.

Worked cases, z-score given:
COMPOUND | z-score
COc1cc(OC)c(C(O)C2C=CC3C(=O)N(c4ccccc4)C(=O)C3N2Nc2ccc(C(C)C)cc2)cc1Br (stereo not drawn) | -2.24
CN(C)CCCC[C@@H]1NC(=O)[C@@H]2C[C@H](C(=O)NCCCCCCNC(=O)CS)[C@H](c3ccc(O)cc3)N2C1=O | 0.873

Could you now consider this next compound?
Documented z-score of C=CCOC(=O)[C@@H]1[C@H]2C(=O)O[C@H](c3ccccc3)[C@H](c3ccccc3)N2[C@H](c2ccc(OCCOC(=O)[C@H]3C[C@H]4C(=O)NCC(=O)N4[C@H]3c3cccc(OCCO)c3)cc2)[C@@]12C(=O)Nc1ccc(I)cc12 : 1.55

###

- TEST SUMMARY: compound effects on multiple myeloma cell viability – MM1S, calcein-AM fluorescence, 48 h, basal, profiling panel (AID 1165);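 also: viability of MM1S multiple myeloma cells under basal unstimulated conditions; test concentration not given here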
- COND: higher = more signal
We begin with a simple list: items and their reported z-score.
Reply with just the number.

Below: 3 compounds and their reported z-score.
COMPOUND | z-score
C=CC[C@@]12N=C(c3ccc(OCCCO)cc3)O[C@@H]1c1ccccc1N(CCC)C2=O | -1.79
CCOC(=O)C[C@H]1[C@H](OC(=O)Cc2ccc3c(c2)OCO3)[C@@H](NC(=O)Cc2ccc(OC)cc2)c2cc(OCCCO)ccc2N1C(=O)Cc1ccc(OC)cc1 | 0.405
C=CCC(OC(C)=O)[C@@H]1[C@@H](N(Cc2cccc3ccccc23)C(=O)Cc2ccc(OC)cc2)c2cc(OCCCO)ccc2N1C(=O)Cc1ccc2ccccc2c1 (some centres undefined) | 0.0986

Please look at the following compound next.
Item: CC(C)(C)N1CC=CC23O[C@@H]4/C=C\CCCOC(=O)C4[C@H]2C(=O)N(CCCO)[C@@H]3C1=O (some centres undefined) | z-score: -0.112

###

As shown below, each of these compounds has a reported z-score value.
- TEST SUMMARY: blockers of DNA damage checkpoint Chk1 activation – imaging, HeLa, hydroxyurea, phospho-Chk1 nuclear intensity, primary screen (AID 1187); also: test concentration not given here
- COND: hydroxyurea-induced phospho-Chk1 immunofluorescence imaging, higher = more signal
Just the number, please, no unit after it.

Solved cases below.
COMPOUND | READOUT NAME | TEST RESULT
C=CCC(OC(C)=O)[C@@H]1[C@@H](N(Cc2cc3ccccc3o2)C(=O)Cc2ccc(OC)cc2)c2cc(OCCCO)ccc2N1C(=O)c1ccc2ccccc2n1 (some centres undefined) | z-score | 0.158
COCCCNC(=O)[C@@H]1c2ccccc2C(=O)N(Cc2ccc(OC(F)(F)F)cc2)[C@H]1c1ccc(CO)cc1 | z-score | -0.368
CC(C)(C)N1CC=CC23O[C@@H]4C=CCCOC(=O)C4[C@H]2C(=O)N(CCCCCCO)[C@@H]3C1=O (some centres undefined) | z-score | 0.222

Let's switch to this compound now.
For record NC(=O)N1C(=O)C2C(C1=O)C1C=C(CCCO)C2C(C2CC2)N1Cc1sc2ccccc2c1Cl (centres undefined) the listed z-score is -0.171

The measured values listed here are drawn from PubChem BioAssay.
